Where these numbers come from: PubChem BioAssay (NCI)

Test system: MDA-MB-468 breast
test-name: NCI tumour cell line growth inhibition, 48 h
Give measured GI50 for each item. Keep answers brief.

Input `O=c1[nH]ccc2nc(-c3ccc(CN4CCC(c5nc(-c6ccccn6)n[nH]5)CC4)cc3)c(-c3ccccc3)cc12` . Output GI50: 88.7 nM

Input `Cc1ccc(NSc2ccccc2[N+](=O)[O-])cc1` . Output GI50: 570 nM

Input `O=C(Nc1cccc([N+](=O)[O-])c1)c1ccc2ccccc2c1O` . Output GI50: 3380 nM

Input `Cc1cc(NCCCCNc2ccnc3cc(Cl)ccc23)nc(Nc2ccc(C(=O)N3CCCC3)cc2)n1` . Output GI50: 1820 nM

Input `COc1cc(OC)c2cc(C(=O)O)c(=O)oc2c1` . Output GI50: > 100000 nM

Input `NC(N)=N/N=C(/c1ccccc1)c1ccc(Cl)cc1` . Output GI50: 2400 nM

Input `COc1ccc2cc3[n+](cc2c1OC)CCc1cc2c(cc1-3)OCO2` . Output GI50: 675 nM

Input O=C(NCC(=O)N1CC[C@H](NC2CCC(O)(c3ccc(-c4ncccn4)cn3)CC2)C1)c1cccc(C(F)(F)F)c1 (some centres not stated) . Output GI50: 19600 nM

Input `COc1cc(C(=O)/C=C/c2c(-c3ccc(F)cc3)nc3ncccn23)cc(OC)c1OC` . Output GI50: 2750 nM

Input `COc1cnc2c(c1)C(=O)c1c-2n(CCCNCCO)c(=O)c2cc(F)ccc12` . Output GI50: 160 nM

Input `O=C1Nc2ccccc2/C1=C/c1cn(C(=O)c2c(Cl)cccc2Cl)c2ccccc12` . Output GI50: 4520 nM

Input `COc1ccc(Cn2cc3c(c2-c2ccc(O)cc2)CCc2cnoc2-3)cc1` . Output GI50: 245 nM
